I'd be grateful if you could share measured Selectivity Index (SI) MCF-10/HT-29 for these entries.
- Test system: HT-29 (colorectal adenocarcinoma)
- experimental_protocol: Sulforhodamine B in vitro growth inhibition assay, HT-29
- Assay type: cell-based, human
- experimental_parameters: IC50 in non-cancerogenic cell line / IC50 in cancer cell line
Reply with the value as a number alone.

Can you look up the measured Selectivity Index (SI) MCF-10/HT-29 of COc1cccc2c1C(=O)c1c(O)c3c(c(O)c1C2=O)C[C@@](O)(C(C)=O)C[C@@H]3O[C@H]1C[C@H](N)[C@H](O)[C@H](C)O1 [Daunorubicin, reference compound] for me? 0.6

Would you kindly share the measured Selectivity Index (SI) MCF-10/HT-29 for CC1=C(C(=O)Oc2cc(C)cc(O)c2)[C@@]2(C)CCCC(C)(C)C2CC1 (some centres unmarked) [6a] ? 1.2

State the recorded Selectivity Index (SI) MCF-10/HT-29 for this entry: COc1cc(C(=O)OC[C@H]2C(C)=CCC3C(C)(C)CCC[C@@]32C)cc(OC)c1O (some centres unmarked) [8d] 0.4

Consider the compound shown here: COc1cc(C(=O)OC[C@H]2C(C)=CCC3C(C)(C)CCC[C@@]32C)cc(OC)c1OC (some centres unmarked) [8e] What is its recorded Selectivity Index (SI) MCF-10/HT-29? 0.6

Query (compound): COc1cc(OC(=O)C2=C(C)CCC3C(C)(C)CCC[C@]23C)ccc1C=O (some centres unmarked) [6e] ; field requested: Selectivity Index (SI) MCF-10/HT-29 1.3

Give the measured Selectivity Index (SI) MCF-10/HT-29 of COc1cc(C=O)ccc1OC(=O)C1=C(C)CCC2C(C)(C)CCC[C@]12C (some centres unmarked) [6f] . 0.3

# lookup: Selectivity Index (SI) MCF-10/HT-29 of O=c1[nH]cc(F)c(=O)[nH]1 [5-FU, 5-fluorouracil] 0.2

Look up Selectivity Index (SI) MCF-10/HT-29: COc1cc(OC)c(C(=O)OC[C@H]2C(C)=CCC3C(C)(C)CCC[C@@]32C)cc1OC (some centres unmarked) [8g] 0.5

----------
- experimental_protocol: Sulforhodamine B in vitro growth inhibition assay, MCF-7
- Format: cell-based, human
- experimental_parameters: human; ratio of selectivity versus 5-FU; read-out: more selective than 5-FU in MCF-7
measured_parameter: selectivity ratio at 72 h
Respond with the number and no other words.

I'd like to know its selectivity ratio at 72 h. The compound in question is CC1=C(C(=O)Oc2cc(C)cc(O)c2)[C@@]2(C)CCCC(C)(C)C2CC1 (stereo partly shown) [6a] 100

----------
- experimental_protocol: Sulforhodamine B in vitro growth inhibition assay, PC-3
- Assay type: cell-based, human
- experimental_parameters: human; ratio of selectivity versus 5-FU; read-out: more selective than 5-FU in PC-3
measured_parameter: selectivity ratio at 72 h
Lab note: jot the number down without any unit.

So what's the measured selectivity ratio at 72 h for this one? CC1=C(C(=O)Oc2cc(C)cc(O)c2)[C@@]2(C)CCCC(C)(C)C2CC1 (stereo partly shown) 20
